Values from the supplement of paper PMC8877412

Test system: NCC-PMP1-C1
Assay: cell viability relative to DMSO control; higher = less growth inhibition
Conditions: 10 µM; 72 h
Counter-ions that a name gives are not always drawn.
For each entry below, report its cell viability value.
Give bare numbers, in %.

C=CCN1CC[C@]23c4c5ccc(O)c4O[C@H]2C(=O)CC[C@@]3(O)[C@H]1C5 [Naloxone HCl]    1.93
O=P1(N(CCCl)CCCl)NCCCO1 (centres undefined) [Cyclophosphamide Monohydrate]    107
NCCCNCCSP(=O)(O)O    95.3
CC(=O)OC12COC1CC(O)C1(C)C(=O)C(O)C3=C(C)C(O)CC(O)(C(OC(=O)c4ccccc4)C21)C3(C)C (centres undefined)    94.7

# batch size: 5; output cell viability per entry
1. C=C1C[C@@H]2[C@H](CC[C@]3(C)C(=O)CC[C@@H]23)[C@@]2(C)C=CC(=O)C=C12
2. O=P1(NCCCl)OCCCN1CCCl (centres undefined) [Ifosfamide]
3. Cc1c(N)nc(C(CC(N)=O)NCC(N)C(N)=O)nc1C(=O)NC(C(=O)NC(C)C(O)C(C)C(=O)NC(C(=O)NCCc1nc(-c2nc(C(=O)NCCC[S+](C)C)cs2)cs1)C(C)O)C(O[C@@H]1O[C@@H](CO)[C@@H](O)[C@H](O)[C@@H]1O[C@H]1O[C@H](CO)[C@@H](O)[C@H](OC(N)=O)[C@@H]1O)c1cnc[nH]1 (some centres undefined) [Bleomycin Sulfate]
4. N.N.[Cl][Pt][Cl] [Cisplatin]
5. CC[C@@]1(O)C(=O)OCc2c1cc1n(c2=O)Cc2cc3ccccc3nc2-1

[138, 107, 80.5, 102, 82.2]
